meta.source: patent US10626112B2

Molecular target: human TRPA1 (Homo sapiens (Human))
Assay: Measurement of TRPA1 antagonist activity (2): as (1), different lot of human TRPA1 expression plasmid
Type: cell-based
Conditions: 293T cells transfected with human TRPA1, allylisothiocyanate 20 μM stimulation, calcium fluorescence, read-out: hTRPA1 IC50
Procedure: Human embryonic kidney-derived 293T cells were cultured in Dulbecco's Modified Eagle Medium containing 10% fetal bovine serum, 10 unit penicillin, and 10 μg streptomycin, plated on a petri dish having a diameter of 10 cm at 3×10^6 cells, and cultured for 24 hr in a CO2 incubator. […] By a method similar to that in Experimental Example 1-1 except that the lot of human […] expression plasmid is different, the TRPA1 antagonist activity of the test substance was measured.
measured quantity: IC50 (nM)

Check out these entries, answers already filled in.
CN(C)c1nc(CNC(=O)[C@@H]2CCCN2S(=O)(=O)c2cc3cnccc3o2)cc(-c2ccc(C(F)(F)F)cc2)n1    13
Nc1nc(CNC(=O)[C@@H]2CCCN2S(=O)(=O)c2cc3cc(F)ccc3o2)cc(-c2ccc(C(F)(F)F)cc2)n1    27
O=C(NCc1cc(-c2ccc(C(F)(F)F)cn2)cnn1)[C@@H]1CCCN1S(=O)(=O)c1cc2cc(F)ccc2o1    7.6
O=C(NCc1cc(-c2cnc(C(F)(F)F)nc2)ncn1)[C@@H]1CCN1S(=O)(=O)c1cc2ccccc2o1    29

P. O=C(NCc1cc(-c2ccc(C(F)(F)F)cc2)ncn1)[C@@H]1CCN1S(=O)(=O)c1cc2ccccc2o1
Q. O=C(NCc1ccnc(-c2cnc(C(F)(F)F)nc2)c1)[C@@H]1CCN1S(=O)(=O)c1cc2cc(F)ccc2o1
Given the listed records, identify the one among P and Q with higher IC50. State the label of the item chosen. Q
(Q: 13 nM, P: 6.6 nM)

P. C[C@@H](C(=O)NCc1cc(-c2ccc(C(F)(F)F)cc2)ncn1)N(C)S(=O)(=O)c1cc2cc(F)ccc2o1
Q. O=C(NCc1cc(-c2ccc(C(F)(F)F)cc2)nc(N2CCOCC2)n1)[C@@H]1CCCN1S(=O)(=O)c1cc2ccccc2o1
R. O=C(NCc1cc(-c2ccc(C(F)(F)F)cn2)ncn1)[C@@H]1CCCN1S(=O)(=O)c1cc2cc(F)ccc2o1
S. COCCN(CC(=O)NCc1cc(-c2ccc(C(F)(F)F)cc2)ncn1)S(=O)(=O)c1cc2cc(F)ccc2o1
Arrange the 4 molecules by rising IC50, starting with the smallest. Note for the reader: the ranking is given by listing the labels in the order requested. P, R, Q, S

* * *

Target: human TRPA1 (Homo sapiens (Human))
Test: Measurement of TRPA1 antagonist activity (1): intracellular calcium increase
Format: cell-based
Details: 293T cells transfected with human TRPA1 expression plasmid; allylisothiocyanate 20 μM stimulation; intracellular calcium fluorescence; read-out: hTRPA1 IC50
Experimental: Measurement of TRPA1 Antagonist Activity (1) Human TRPA1 Expression Plasmid […] The 384 well plate was recovered, and the medium was removed. […] After 10 min, allylisothiocyanate (12 μL) was further added at a final concentration of 20 μM, and changes in the relative fluorescence intensity after addition of allylisothiocyanate were measured for 5 min. […]
measured quantity: IC50 (nM)

O=C(NCc1cccc(F)c1)[C@@H]1CCCN1S(=O)(=O)c1cc2ccccc2o1 [Example 59]    540
O=C(NCc1cccc(OC(F)(F)F)c1)[C@@H]1CCCN1S(=O)(=O)c1cc2ccccc2o1 [Example 62]    60
O=C(NCc1ccc(OC(F)(F)F)cc1)[C@@H]1CCCN1S(=O)(=O)c1cc2ccccc2o1 [Example 63]    60

a. O=C(NCc1cccc(OCc2ccccn2)c1)[C@@H]1CCCN1S(=O)(=O)c1cc2cc(F)ccc2o1 [Example 15]
b. O=C(NCc1ccnc(-c2cnc(C(F)(F)F)nc2)c1)[C@@H]1CCCN1S(=O)(=O)c1cc2ccccc2o1 [Example 199]
Given the listed records, identify the one among a and b with higher IC50. State the label of the item chosen. a

* * *

biological target: human TRPA1 (Homo sapiens (Human), UniProt O75762); test: Measurement of TRPA1 antagonist activity (1): intracellular calcium increase; format: cell-based; settings: 293T cells transfected with human TRPA1 expression plasmid; allylisothiocyanate 20 μM stimulation; intracellular calcium fluorescence; read-out: hTRPA1 IC50
Sequence (O75762 whole entry): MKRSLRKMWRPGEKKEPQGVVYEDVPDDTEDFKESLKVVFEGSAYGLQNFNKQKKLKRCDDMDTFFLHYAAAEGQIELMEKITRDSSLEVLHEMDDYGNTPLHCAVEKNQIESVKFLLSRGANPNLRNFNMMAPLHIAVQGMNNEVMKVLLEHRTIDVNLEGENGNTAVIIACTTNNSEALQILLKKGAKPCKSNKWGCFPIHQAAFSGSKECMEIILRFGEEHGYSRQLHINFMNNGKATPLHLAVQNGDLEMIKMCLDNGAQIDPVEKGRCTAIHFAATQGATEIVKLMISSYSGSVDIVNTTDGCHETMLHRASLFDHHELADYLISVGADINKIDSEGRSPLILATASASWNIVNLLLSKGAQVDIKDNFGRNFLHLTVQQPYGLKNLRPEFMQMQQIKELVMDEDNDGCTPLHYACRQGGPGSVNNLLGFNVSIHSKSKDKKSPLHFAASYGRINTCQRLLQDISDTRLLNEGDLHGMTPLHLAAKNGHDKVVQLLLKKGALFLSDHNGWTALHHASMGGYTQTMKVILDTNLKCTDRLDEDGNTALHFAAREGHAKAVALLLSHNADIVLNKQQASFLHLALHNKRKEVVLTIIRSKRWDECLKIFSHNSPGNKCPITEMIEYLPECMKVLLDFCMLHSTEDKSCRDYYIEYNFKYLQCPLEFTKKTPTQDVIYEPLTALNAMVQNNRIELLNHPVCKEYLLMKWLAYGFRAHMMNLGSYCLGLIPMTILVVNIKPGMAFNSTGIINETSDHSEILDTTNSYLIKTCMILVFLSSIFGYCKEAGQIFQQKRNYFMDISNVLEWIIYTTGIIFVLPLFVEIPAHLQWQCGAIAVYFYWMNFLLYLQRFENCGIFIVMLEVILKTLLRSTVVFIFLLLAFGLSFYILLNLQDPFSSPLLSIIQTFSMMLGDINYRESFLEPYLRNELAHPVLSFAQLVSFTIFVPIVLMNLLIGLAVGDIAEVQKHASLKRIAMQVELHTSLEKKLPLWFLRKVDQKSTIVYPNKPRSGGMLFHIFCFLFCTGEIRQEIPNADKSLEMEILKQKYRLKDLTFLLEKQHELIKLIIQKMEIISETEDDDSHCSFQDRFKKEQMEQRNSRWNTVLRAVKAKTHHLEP
pIC50: −log10 of the molar value.
measured quantity: pIC50

Check out these entries, answers already filled in.
C[C@H](NS(=O)(=O)c1cc2cnccc2o1)C(=O)NCc1cc(-c2ccc(C(F)(F)F)cn2)ccn1    6.46
O=C(NCc1cccc(CNc2ccc(C(F)(F)F)cn2)c1)[C@@H]1CCCN1S(=O)(=O)c1cc2ccccc2o1    6.04
N#Cc1ccc(-c2cncc(CNC(=O)[C@@H]3CCCN3S(=O)(=O)c3cc4cc(F)ccc4o3)c2)cc1    7.62

P. N#Cc1cccc(-c2ccc(CNC(=O)[C@@H]3CCCN3S(=O)(=O)c3cc4ccccc4o3)cc2)c1
Q. O=C(NCc1cccc(Sc2ccc(C(F)(F)F)cc2)c1)[C@@H]1CCCN1S(=O)(=O)c1cc2ccccc2o1
R. O=C(NCc1cccc(OCc2cccnc2)c1)[C@@H]1CCCN1S(=O)(=O)c1cc2ccccc2o1
S. CSc1ccc(-c2cc(CNC(=O)[C@@H]3CCCN3S(=O)(=O)c3cc4ccccc4o3)ccn2)cc1
Sort the 4 molecules by pIC50; largest first, smallest last. Note for the reader: the ranking is given by listing the labels in the order requested. S, Q, R, P

* * *

Biological target: human TRPA1 (Homo sapiens (Human), UniProt O75762)
Test: Measurement of TRPA1 antagonist activity (1): intracellular calcium increase
Assay type: cell-based
Details: 293T cells transfected with human TRPA1 expression plasmid; allylisothiocyanate 20 μM stimulation; intracellular calcium fluorescence; read-out: hTRPA1 IC50
Description: Measurement of TRPA1 Antagonist Activity (1) Human TRPA1 Expression Plasmid […] The 384 well plate was recovered, and the medium was removed. […] After 10 min, allylisothiocyanate (12 μL) was further added at a final concentration of 20 μM, and changes in the relative fluorescence intensity after addition of allylisothiocyanate were measured for 5 min. […]
measured quantity: IC50 (nM)

Check out these entries, answers already filled in.
O=C(NCc1cccc(OCc2ccc(C(F)(F)F)cc2)c1)[C@@H]1CCCN1S(=O)(=O)c1cc2c(F)cccc2o1 [Example 42]    7.1
O=C(NCc1cccc(-c2ccc(C(F)(F)F)nc2)c1)[C@@H]1CCN1S(=O)(=O)c1cc2cc(F)ccc2o1 [Example 100]    1.6
O=C(NCc1ccnc(-c2ccc(C(F)(F)F)cc2)c1)[C@@H]1CCCN1S(=O)(=O)c1cc2c(F)cccc2o1 [Example 97]    4

P. C[C@H](NS(=O)(=O)c1cc2cc(F)ccc2o1)C(=O)NCc1cc(-c2ccc(C(F)(F)F)nc2)ncn1 [Example 191]
Q. O=C(NCc1cc(F)cc(OCc2ccncc2)c1)[C@@H]1CCCN1S(=O)(=O)c1cc2cc(F)ccc2o1 [Example 35]
Given the listed records, identify the one among P and Q with higher IC50. State the label of the item chosen. P
(P: 12 nM, Q: 8 nM)

* * *

target: human TRPA1 (Homo sapiens (Human)); assay: Measurement of TRPA1 antagonist activity (1): intracellular calcium increase; assay type: cell-based; conditions: 293T cells transfected with human TRPA1 expression plasmid; allylisothiocyanate 20 μM stimulation; intracellular calcium fluorescence; read-out: hTRPA1 IC50
measured quantity: IC50 (nM)

Check out these entries, answers already filled in.
O=C(NCc1ccccc1OC(F)(F)F)[C@@H]1CCCN1S(=O)(=O)c1cc2ccccc2o1    100
C[C@H](NS(=O)(=O)c1cc2cc(F)ccc2o1)C(=O)NCc1cc(-c2ccc(C(F)(F)F)cc2O)ncn1    5.7
C[C@H](NS(=O)(=O)c1cc2cc(F)ccc2o1)C(=O)NCc1cccc(OCc2ccc(C#N)cc2)c1    41
C[C@H](NC(=O)[C@@H]1CCCN1S(=O)(=O)c1cc2ccccc2o1)c1cccc(-c2ccc(C(F)(F)F)nc2)c1    7.9
O=C(NCc1cccc(OCc2ccc(C(F)(F)F)nc2)c1)[C@@H]1CCCN1S(=O)(=O)c1cc2cc(F)ccc2o1    1.4

1. CC[C@H](NS(=O)(=O)c1cc2cc(F)ccc2o1)C(=O)NCc1cc(-c2ccc(C(F)(F)F)cn2)ccn1
2. O=C(NCc1cccc(Cl)c1)[C@@H]1CCCN1S(=O)(=O)c1cc2ccccc2o1
Given the listed records, identify the one among 1 and 2 with higher IC50. State the label of the item chosen. 2
(2: 200 nM, 1: 54 nM)

* * *

target: human TRPA1 (Homo sapiens (Human), UniProt O75762); assay: Measurement of TRPA1 antagonist activity (2): as (1), different lot of human TRPA1 expression plasmid; assay type: cell-based; details: 293T cells transfected with human TRPA1, allylisothiocyanate 20 μM stimulation, calcium fluorescence, read-out: hTRPA1 IC50
pIC50: −log10 of the molar value.
measured quantity: pIC50

Check out these entries, answers already filled in.
C[C@H](NS(=O)(=O)c1cc2cnccc2o1)C(=O)NCc1cc(-c2ccc(C(F)(F)F)cc2O)ncn1    7.47
O=C(NCc1cc(-c2ncc(C(F)(F)F)cn2)ccn1)[C@@H]1CCCN1S(=O)(=O)c1cc2cc(F)ccc2o1    8.15
CC(C)N(CC(=O)NCc1cc(-c2ccc(C(F)(F)F)cn2)ccn1)S(=O)(=O)c1cc2cc(F)ccc2o1    7.80

A. O=C(NCc1cc(-c2ccc(C(F)(F)F)cn2)ncn1)[C@@H]1CCN1S(=O)(=O)c1cc2cc(F)ccc2o1
B. O=C(NCc1cc(-c2ccc(OC(F)(F)F)cc2)ncn1)[C@@H]1CCN1S(=O)(=O)c1cc2cc(F)ccc2o1
Given the listed records, identify the one among A and B with higher pIC50. State the label of the item chosen. B
(B: 8.49, A: 7.92)

A. CC(C)N(CC(=O)NCc1cc(-c2ccc(C(F)(F)F)nc2)ncn1)S(=O)(=O)c1cc2cc(F)ccc2o1
B. O=C(NCc1cccc(-c2cnc(C(F)(F)F)cn2)c1)[C@@H]1CCN1S(=O)(=O)c1cc2cc(F)ccc2o1
For A and B , which recorded pIC50 is lower? State the label of the item chosen. A

P. O=C(NCc1cc(-c2ccc(C(F)(F)F)cc2O)ncn1)[C@@H]1CCN1S(=O)(=O)c1cc2cc(F)ccc2o1
Q. CC(C)N(CC(=O)NCc1cc(-c2ccc(C(F)(F)F)cc2O)ncn1)S(=O)(=O)c1cc2cc(F)ccc2o1
For P and Q , which recorded pIC50 is lower? State the label of the item chosen. Q
(Q: 7.92, P: 8.57)

I. CN(C)c1nc(CNC(=O)[C@@H]2CCCN2S(=O)(=O)c2cc3ccccc3o2)cc(-c2ccc(C(F)(F)F)nc2)n1
II. O=C(NCc1cc(-c2ccc(C(F)(F)F)cc2)nc(N2CCC2)n1)[C@@H]1CCCN1S(=O)(=O)c1cc2ccccc2o1
Given the listed records, identify the one among I and II with higher pIC50. State the label of the item chosen. I
